- Assay Target: DRB1*1101 (DR5w11) (Homo sapiens, UniProt P01903+P01911, A100R/A169T/A87E/I96F/K41T/L162R/M171V/P40S/Q125H/Q178H/Q39Y/Q99D/R42S/S66Y/T262R/V115G/W38E)
- Construct: used as sources of human HLA class II molecules; endogenous in cells; host or cells: SWEIG (EBV-transformed homozygous B cell line)
- Sequence (P01903 26-254, other chains not shown): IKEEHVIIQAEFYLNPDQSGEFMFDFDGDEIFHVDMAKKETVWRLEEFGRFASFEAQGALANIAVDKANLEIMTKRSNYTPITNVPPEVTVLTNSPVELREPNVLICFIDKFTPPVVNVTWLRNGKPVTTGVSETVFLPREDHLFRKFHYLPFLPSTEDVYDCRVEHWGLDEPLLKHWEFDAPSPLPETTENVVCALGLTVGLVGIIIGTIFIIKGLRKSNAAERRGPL
- Protocol Details: Class II peptide-binding assay, DR5w11;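 note: competition by unlabeled test peptide against iodinated probe peptide binding to affinity-purified HLA-DR, class II amount titrated beforehand, half-maximal inhibitory concentration read as approximate Kd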
- Condition Set: Table VIII; read-out: In IC50 Format DR5w11
pIC50: −log10 of the molar value. Ends that are not written are not given here.

- Ordered Residues: "KMYFNLINTKCYKLEH [Peptide 541.14]"
  pIC50: 6.60
